Hey, just so you know, these numbers are from ChEMBL document CHEMBL1201862.

# measurement.target: Heat shock factor protein 1 (Mus musculus)
# Sequence (P38532 whole entry): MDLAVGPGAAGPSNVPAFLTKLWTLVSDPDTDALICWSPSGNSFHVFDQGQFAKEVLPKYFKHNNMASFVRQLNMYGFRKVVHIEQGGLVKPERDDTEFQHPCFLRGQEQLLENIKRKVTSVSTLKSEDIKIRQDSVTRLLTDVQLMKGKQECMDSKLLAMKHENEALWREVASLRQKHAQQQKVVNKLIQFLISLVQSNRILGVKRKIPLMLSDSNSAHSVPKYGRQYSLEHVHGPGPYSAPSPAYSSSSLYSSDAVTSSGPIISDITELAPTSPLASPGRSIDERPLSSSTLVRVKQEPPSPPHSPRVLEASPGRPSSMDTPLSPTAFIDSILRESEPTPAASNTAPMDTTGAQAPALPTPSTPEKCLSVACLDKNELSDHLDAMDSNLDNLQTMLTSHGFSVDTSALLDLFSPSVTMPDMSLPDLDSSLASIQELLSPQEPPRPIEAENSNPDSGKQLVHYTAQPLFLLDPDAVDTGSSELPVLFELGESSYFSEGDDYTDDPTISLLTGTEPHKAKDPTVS
# assay.notes: enhancement of HSF1-driven luciferase signal – cell-based, NIH3T3, luminescence, dose retest, confirmation (AID 435004);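 note: stress induced by proteasome inhibitor MG132 added 30 min after compound; luciferase reporter driven by HSF1 response element in NIH3T3 cells; actives raise luminescence as potentiators of the MG132 stress response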
# Format: functional
Activity calls are given as the source filed them. Cut-off read from the data, not from the text of the source: actives have a measured EC50 and inactives only a lower limit.
Output constraint: value belongs to active, inactive

Give the logged outcome of this assay for the following molecule: `CCN(CCO)c1nc(SC)nc2c1sc1nc(-c3ccco3)c3c(c12)CCC3`
active

Give the logged outcome of this assay for the following molecule: `Cc1c(/N=C2\SCC(=O)N2/N=C\c2ccc(Br)cc2)c(=O)n(-c2ccccc2)n1C`
inactive

Next:
Give the logged outcome of this assay for the following molecule: `Cc1ccc(O)c(NC(=O)COc2cc(C)ccc2C)c1`
inactive
